- procedure-summary: TOX21_p53_BLA_p2_viability: Viability Assessment in the Tox21 HCT-116 p53 Agonism Beta-lactamase Assay, Phase 2 (AID 2283591);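 also: compound exposure lasted 16 h at 37 °C; actives lower the ATP signal meaning cytotoxicity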
Results filed as inconclusive are left out. Active and inactive are the calls of the source. The calls were made as follows: active = hit-call score of the fitted dose curve at least 0.9, where 1 is the maximum; inconclusive = response in the unintended direction; inactive = score below 0.9.

>  <compound>
COc1cc(OC)nc(NC(=O)NS(=O)(=O)c2ncccc2OCC(F)(F)F)n1

>  <outcome>
inactive

$$$$
>  <compound>
COCC(=O)N(c1c(C)cccc1C)C(C)C(=O)OC (centres undefined)

>  <outcome>
inactive

$$$$
>  <compound>
Cn1c(-c2ccccc2)cc(-c2ccccc2)[n+]1C

>  <outcome>
inactive

$$$$
>  <compound>
C=C(C)CN(CC)c1c([N+](=O)[O-])cc(C(F)(F)F)cc1[N+](=O)[O-]

>  <outcome>
inactive

$$$$

---

- Read-out: Bcl-2 (BID) gene, BID (gene 637)
- procedure-summary: LTEA_HepaRG_BID: Life Technologies and Expression Analysis (LTEA) Assay for Bcl-2 (BID) gene using HepaRG (AID 2283476)
- test-parameters: mRNA level, 48 h; actives raise or lower the signal
Calls of active or inactive are those of the source. Rule for the calls: active = hit-call score of the fitted dose curve at least 0.9, where 1 is the maximum; inactive = score below 0.9.
Outcomes: yes = active, no = inactive

>  <compound>
O=P(O)(O)CCCl

>  <group-label>
no

$$$$
>  <compound>
CCCCC(O)(Cn1cncn1)c1ccc(Cl)cc1Cl (stereo not drawn)

>  <group-label>
no

$$$$
>  <compound>
CC1(C)CCC(=Cc2ccc(Cl)cc2)C1(O)Cn1cncn1 (stereo not drawn)

>  <group-label>
no

$$$$
>  <compound>
CN/C(=N\[N+](=O)[O-])NCc1cnc(Cl)s1

>  <group-label>
no

$$$$
>  <compound>
N#Cc1c[nH]cc1-c1cccc2c1OC(F)(F)O2

>  <group-label>
no

$$$$
>  <compound>
CCC(C)n1c(=O)[nH]c(C)c(Br)c1=O (stereo not drawn)

>  <group-label>
no

$$$$
>  <compound>
COC(=O)c1c(C(F)F)nc(C(F)(F)F)c(C2=NCCS2)c1CC(C)C

>  <group-label>
no

$$$$
>  <compound>
COCC(=O)N(c1c(C)cccc1C)C(C)C(=O)OC (stereo not drawn)

>  <group-label>
no

$$$$
>  <compound>
CCOc1nc(C(Cl)(Cl)Cl)ns1

>  <group-label>
yes

$$$$
>  <compound>
C=CCOC(=O)C(C)(C)OC(=O)c1cc(-n2c(=O)cc(C(F)(F)F)n(C)c2=O)ccc1Cl

>  <group-label>
no

$$$$
>  <compound>
COP(=S)(OC)SCn1nnc2ccccc2c1=O

>  <group-label>
no

$$$$
>  <compound>
CCOc1cc(C(C)(C)C)ccc1C1COC(c2c(F)cccc2F)=N1 (stereo not drawn)

>  <group-label>
no

$$$$
>  <compound>
CCCN(CC)CC1COC2(CCC(C(C)(C)C)CC2)O1 (stereo not drawn)

>  <group-label>
no

$$$$

---

- system-name: Cellular tumor antigen p53 (Homo sapiens) (UniProt P04637)
- Sequence (P04637 whole entry, looked up): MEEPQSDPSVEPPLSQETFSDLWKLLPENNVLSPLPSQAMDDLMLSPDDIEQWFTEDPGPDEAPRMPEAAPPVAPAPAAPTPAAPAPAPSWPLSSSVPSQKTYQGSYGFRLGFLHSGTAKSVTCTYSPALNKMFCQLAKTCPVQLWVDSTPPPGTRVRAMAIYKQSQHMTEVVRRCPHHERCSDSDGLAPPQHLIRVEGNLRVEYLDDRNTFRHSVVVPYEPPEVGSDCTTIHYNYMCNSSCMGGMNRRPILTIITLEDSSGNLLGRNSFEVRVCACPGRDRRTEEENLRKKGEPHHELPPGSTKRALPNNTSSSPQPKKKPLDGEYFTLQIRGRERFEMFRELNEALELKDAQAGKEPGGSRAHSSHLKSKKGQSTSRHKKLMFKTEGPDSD
- procedure-summary: TOX21_p53_BLA_p2_ratio: Tox21 HCT-116 p53 Agonism Beta-lactamase Assay, Ratio, Phase 2 (AID 2283592)
Results filed as inconclusive are left out. Activity calls are given as the source filed them. How the source made its calls: active means hit-call score of the fitted dose curve at least 0.9, where 1 is the maximum; inconclusive means response in the unintended direction; inactive means score below 0.9.
measured-property: AC50

>  <smiles-structure>
CN/C(=N\[N+](=O)[O-])NCc1cnc(Cl)s1

>  <measured-property>
AC50

>  <endpoint-result>
inactive

$$$$
>  <smiles-structure>
CCN(CC)c1nc(C)cc(OP(=S)(OC)OC)n1

>  <measured-property>
AC50

>  <endpoint-result>
inactive

$$$$
>  <smiles-structure>
Nc1c(Cl)c(F)nc(OCC(=O)O)c1Cl

>  <measured-property>
AC50

>  <endpoint-result>
inactive

$$$$
>  <smiles-structure>
CS(=O)(=O)c1ccc(C(=O)C2C(=O)CCCC2=O)c([N+](=O)[O-])c1

>  <measured-property>
AC50

>  <endpoint-result>
inactive

$$$$
>  <smiles-structure>
CC(C)Nc1nc(Cl)nc(NC(C)C)n1

>  <measured-property>
AC50

>  <endpoint-result>
inactive

$$$$
>  <smiles-structure>
CCCCOCN(C(=O)CCl)c1c(CC)cccc1CC

>  <measured-property>
AC50

>  <endpoint-result>
inactive

$$$$
>  <smiles-structure>
CO/N=C(/C1=NOCCO1)c1ccccc1Oc1ncnc(Oc2ccccc2Cl)c1F

>  <measured-property>
AC50

>  <endpoint-result>
3.05 µM (active)

$$$$
>  <smiles-structure>
COC(=O)N(C(=O)N1CO[C@@]2(C(=O)OC)Cc3cc(Cl)ccc3C2=N1)c1ccc(OC(F)(F)F)cc1

>  <measured-property>
AC50

>  <endpoint-result>
46.3 µM (active)

$$$$

---

- procedure-summary: Tanguay_ZF_120hpf_PFIN_legacy: (Legacy) Oregon State University Tanguay Lab 120 Hour Post-fertilization zebrafish Assay for Pectoral Fin Malformation (AID 2283648);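 also: each larva judged yes or no for fin defect by brightfield with dead larvae skipped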
Inconclusive results are not listed. The source made the active and inactive calls. Rule for the calls: active = hit-call score of the fitted dose curve at least 0.9, where 1 is the maximum; inconclusive = response in the unintended direction; inactive = score below 0.9.
Outcomes: YES (active), NO (inactive)

>  <compound>
CCOc1nc(F)cc2nc(S(=O)(=O)Nc3c(Cl)cccc3Cl)nn12

>  <group-label>
NO

$$$$
>  <compound>
CCCCC(C#N)(Cn1cncn1)c1ccc(Cl)cc1 (configuration not stated)

>  <group-label>
YES

$$$$
>  <compound>
CC(C)N1C(=O)N(c2ccccc2)CSC1=NC(C)(C)C

>  <group-label>
NO

$$$$
>  <compound>
Nc1c(Cl)c(Cl)nc(C(=O)O)c1Cl

>  <group-label>
NO

$$$$
>  <compound>
Cc1cc(C)nc(Nc2ccccc2)n1

>  <group-label>
NO

$$$$
>  <compound>
N#CN=C1SCCN1Cc1ccc(Cl)nc1

>  <group-label>
NO

$$$$
>  <compound>
CCOC(=O)C(C)OC(=O)c1cc(Oc2ccc(C(F)(F)F)cc2Cl)ccc1[N+](=O)[O-] (configuration not stated)

>  <group-label>
NO

$$$$
>  <compound>
CC(C)NC(=O)N1CC(=O)N(c2cc(Cl)cc(Cl)c2)C1=O

>  <group-label>
NO

$$$$
>  <compound>
COC(=O)N(C(=O)N1CO[C@@]2(C(=O)OC)Cc3cc(Cl)ccc3C2=N1)c1ccc(OC(F)(F)F)cc1

>  <group-label>
NO

$$$$
>  <compound>
CCN(CC)C(=O)C(C)Oc1cccc2ccccc12 (configuration not stated)

>  <group-label>
NO

$$$$
>  <compound>
Cc1nc(N(C)C)nc(OC(=O)N(C)C)c1C

>  <group-label>
NO

$$$$
>  <compound>
N#Cc1c(Cl)cccc1Cl

>  <group-label>
NO

$$$$

---

- Read-out: Broad substrate specificity ATP-binding cassette transporter ABCG2 (Homo sapiens) (UniProt Q9UNQ0)
- Sequence (Q9UNQ0 whole entry, looked up): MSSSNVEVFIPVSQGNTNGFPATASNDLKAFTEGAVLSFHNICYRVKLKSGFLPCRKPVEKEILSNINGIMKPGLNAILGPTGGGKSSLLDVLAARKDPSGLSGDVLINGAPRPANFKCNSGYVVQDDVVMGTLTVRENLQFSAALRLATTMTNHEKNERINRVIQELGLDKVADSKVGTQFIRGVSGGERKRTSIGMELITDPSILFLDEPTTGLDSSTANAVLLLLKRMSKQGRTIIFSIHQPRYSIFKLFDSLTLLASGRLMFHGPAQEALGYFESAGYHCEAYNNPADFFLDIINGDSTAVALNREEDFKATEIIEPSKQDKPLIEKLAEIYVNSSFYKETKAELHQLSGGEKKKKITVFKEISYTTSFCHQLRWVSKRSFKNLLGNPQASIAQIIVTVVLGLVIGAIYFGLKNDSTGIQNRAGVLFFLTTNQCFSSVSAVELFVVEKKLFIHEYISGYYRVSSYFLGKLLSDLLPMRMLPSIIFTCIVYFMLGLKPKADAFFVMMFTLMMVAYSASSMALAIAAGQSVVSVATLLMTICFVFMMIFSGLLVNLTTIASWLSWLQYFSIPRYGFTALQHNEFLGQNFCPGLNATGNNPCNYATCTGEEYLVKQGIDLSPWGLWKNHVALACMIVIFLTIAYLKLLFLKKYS
- procedure-summary: LTEA_HepaRG_ABCG2: Life Technologies and Expression Analysis (LTEA) Assay for ABC Transporter (ABCG2) using HepaRG (AID 2283465)
- test-parameters: mRNA level, 48 h; actives raise or lower the signal
Calls of active or inactive are those of the source. Rule for the calls: active = hit-call score of the fitted dose curve at least 0.9, where 1 is the maximum; inactive = score below 0.9.
Outcomes: active, inactive

>  <molecule>
COC(=O)N(C(=O)N1CO[C@@]2(C(=O)OC)Cc3cc(Cl)ccc3C2=N1)c1ccc(OC(F)(F)F)cc1

>  <group-label>
inactive

$$$$
>  <molecule>
O=C(O)c1c(Cl)ccc2cc(Cl)cnc12

>  <group-label>
inactive

$$$$
>  <molecule>
COc1cc(Cl)c(OC)cc1Cl

>  <group-label>
inactive

$$$$
>  <molecule>
Nc1c(Cl)c(F)nc(OCC(=O)O)c1Cl

>  <group-label>
inactive

$$$$
>  <molecule>
CCOP(=S)(OCC)Oc1nc(Cl)n(C(C)C)n1

>  <group-label>
inactive

$$$$
>  <molecule>
CC(C)N1C(=O)N(c2ccccc2)CSC1=NC(C)(C)C

>  <group-label>
active

$$$$
>  <molecule>
CCNC(=O)NC(=O)C(C#N)=NOC

>  <group-label>
inactive

$$$$
>  <molecule>
CSC(=O)c1c(C(F)F)nc(C(F)(F)F)c(C(=O)SC)c1CC(C)C

>  <group-label>
inactive

$$$$
>  <molecule>
CCNP(=S)(OC)O/C(C)=C/C(=O)OC(C)C (configuration not stated)

>  <group-label>
active

$$$$
>  <molecule>
O=C1C2CC=CCC2C(=O)N1SC(Cl)(Cl)Cl (configuration not stated)

>  <group-label>
inactive

$$$$
>  <molecule>
Cc1cc(C)nc(Nc2ccccc2)n1

>  <group-label>
inactive

$$$$
>  <molecule>
C=CCOC(=O)C(C)(C)OC(=O)c1cc(-n2c(=O)cc(C(F)(F)F)n(C)c2=O)ccc1Cl

>  <group-label>
inactive

$$$$

---

- Read-out: CD69, CD69 (gene 969)
- procedure-summary: BSK_SAg_CD69: BioMAP Diversity Plus: SAg Assay for CD69 Biomarker Activity (AID 2283089)
- test-parameters: primary human HUVEC with PBMC; actives raise or lower the signal
Calls of active or inactive are those of the source. Rule for the calls: active = hit-call score of the fitted dose curve at least 0.9, where 1 is the maximum; inactive = score below 0.9.
Outcomes: active, inactive

>  <molecule>
COP(=S)(OC)SCn1nnc2ccccc2c1=O

>  <group-label>
active

$$$$
>  <molecule>
CCCCC(O)(Cn1cncn1)c1ccc(Cl)cc1Cl (configuration not stated)

>  <group-label>
inactive

$$$$
>  <molecule>
CC(C)N1C(=O)c2ccccc2NS1(=O)=O

>  <group-label>
inactive

$$$$
>  <molecule>
COC(=O)NC(=S)Nc1ccccc1NC(=S)NC(=O)OC

>  <group-label>
inactive

$$$$
>  <molecule>
CC(C)(C)C(=O)C(Oc1ccc(Cl)cc1)n1cncn1 (configuration not stated)

>  <group-label>
inactive

$$$$
>  <molecule>
CCCN(CC)CC1COC2(CCC(C(C)(C)C)CC2)O1 (configuration not stated)

>  <group-label>
inactive

$$$$
>  <molecule>
N#CN=C1SCCN1Cc1ccc(Cl)nc1

>  <group-label>
inactive

$$$$
>  <molecule>
C=C(C)CN(CC)c1c([N+](=O)[O-])cc(C(F)(F)F)cc1[N+](=O)[O-]

>  <group-label>
inactive

$$$$
>  <molecule>
CC(C)C1(C)N=C(c2ncccc2C(=O)O)NC1=O (configuration not stated)

>  <group-label>
inactive

$$$$
>  <molecule>
Nc1cnn(-c2ccccc2)c(=O)c1Cl

>  <group-label>
inactive

$$$$
>  <molecule>
CCNP(=S)(OC)O/C(C)=C/C(=O)OC(C)C (configuration not stated)

>  <group-label>
inactive

$$$$
>  <molecule>
COCc1cnc(C2=NC(C)(C(C)C)C(=O)N2)c(C(=O)O)c1 (configuration not stated)

>  <group-label>
inactive

$$$$
>  <molecule>
COCC(C)N(C(=O)CCl)c1c(C)csc1C (configuration not stated)

>  <group-label>
inactive

$$$$
>  <molecule>
COc1ccc(-c2ccccc2)cc1NNC(=O)OC(C)C

>  <group-label>
inactive

$$$$
>  <molecule>
CC(C)Oc1cccc(NC(=O)c2ccccc2C(F)(F)F)c1

>  <group-label>
inactive

$$$$
>  <molecule>
O=c1n(Cl)c(=O)n(Cl)c(=O)n1Cl

>  <group-label>
inactive

$$$$
>  <molecule>
Cc1cnc(C2=NC(C)(C(C)C)C(=O)N2)c(C(=O)O)c1 (configuration not stated)

>  <group-label>
inactive

$$$$
